Readout type: melting point

Study these solved cases before continuing.
{"Compound": "CN1CCN(CCCn2c(N)nc3ccccc32)CC1", "Value measured": "195 to 197 °C"}
{"Compound": "C=Cn1cc(C(=O)O)c(=O)c2cc(F)c(N3CCOCC3)cc21", "Value measured": "218 to 220 °C"}
{"Compound": "O=c1c([N+](=O)[O-])c[nH]n1-c1c(Cl)cc(C(F)(F)F)cc1Cl", "Value measured": "100 to 108 °C"}

-- ask Which value of melting point has been reported for Cn1cc(C2CCN(CCn3cnc4ccccc4c3=O)CC2)c2ccccc21 in the records?
-- reply 78 °C

-- ask Which value of melting point has been reported for CCCc1ncc(C=CC=CC(=O)OCC)s1 in the records?
-- reply 52 °C
